Item-by-item account of MC4R selectivity vs MC3R
Target: human MC3R (Homo sapiens, UniProt P41968)
Construct: expressed in transfected cells; host or cells: HEK-293 cells stably expressing the GScAMP22F split-luciferase cAMP sensor (parent reporter line from Promega); MC3R clone generated in-house, G418 selection
Sequence (P41968 whole entry): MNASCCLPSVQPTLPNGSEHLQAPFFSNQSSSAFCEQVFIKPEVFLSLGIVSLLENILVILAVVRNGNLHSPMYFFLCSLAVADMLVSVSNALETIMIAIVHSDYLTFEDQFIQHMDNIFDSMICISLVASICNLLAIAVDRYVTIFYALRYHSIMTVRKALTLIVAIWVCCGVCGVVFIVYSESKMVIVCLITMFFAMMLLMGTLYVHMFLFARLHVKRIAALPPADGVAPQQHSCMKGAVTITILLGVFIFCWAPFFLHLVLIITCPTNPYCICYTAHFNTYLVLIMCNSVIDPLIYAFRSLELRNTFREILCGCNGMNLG
Assay: split-luciferase cAMP sensor assay, agonist mode (measurement window 1), hMC3R
Type: cell-based
Details: MC4R versus MC3R
Positions of bridges follow the written chain, without caps; N, C: chain ends. Non-standard residues stand in square brackets, D forms with d. Residues, ends and D or L forms follow the SMILES beside them. Cit = NC(=O)NCCC[C@H](N)C(=O)O; Nle = CCCC[C@H](N)C(=O)O
Output: the number by itself.

Consider the reported MC4R selectivity vs MC3R for these molecules:
{"Molecule": "CCCC[C@H](NC(=O)[C@H](CCCNC(=N)N)NC(C)=O)C(=O)N[C@H]1CSSC[C@@H](C(N)=O)NC(=O)[C@H](Cc2ccccc2)NC(=O)[C@H](CCCNC(=N)N)NC(=O)[C@@H](Cc2ccc(OC)cc2)NC(=O)[C@H](CCCNC(=N)N)NC1=O [CTX-1624] (Ac-R[Nle]CR[dY](Me)RFC-NH2; disulfide 3-8 (inferred))", "Target": "human MC3R (Homo sapiens, UniProt P41968)", "MC4R selectivity vs MC3R": 0.47}
{"Molecule": "CCCC[C@H](NC(=O)[C@H](CCCNC(=N)N)NC(C)=O)C(=O)N[C@H]1CSSC[C@@H](C(N)=O)NC(=O)[C@H](Cc2ccccc2)NC(=O)[C@H](CCCNC(=N)N)NC(=O)[C@@H](Cc2ccccc2)NC(=O)[C@H](CCCNC(N)=O)NC1=O [CTX-1626, Arg-Nle-cyclo(Cys-Cit-D-Phe-Arg-Phe-Cys)] (Ac-R[Nle]C[Cit][dF]RFC-NH2; disulfide 3-8 (inferred))", "Target": "human MC3R (Homo sapiens, UniProt P41968)", "MC4R selectivity vs MC3R": 1.6}

Consider the record given below.
Requested field: MC4R selectivity vs MC3R. Item: CC(=O)N[C@@H](CCCNC(=N)N)C(=O)N[C@H]1CSSC[C@@H](C(N)=O)NC(=O)[C@@H](Cc2ccccc2)NC(=O)[C@H](CCCNC(=N)N)NC(=O)[C@@H](Cc2ccccc2)NC(=O)[C@H](CCCNC(=N)N)NC(=O)[C@@H](C)NC1=O [CTX-1265] (Ac-RC[dA]R[dF]R[dF]C-NH2; disulfide 2-8 (inferred)) 0.04
